Tested on: CAR T cells negative control
Test: Sensitivity of CAR T cells to clofarabine and fludarabine (cell viability)
Format: cell-based
Condition: CAR T cells negative control, FIG. 17, read-out: IC50 clofarabine
Quantity Kind: IC50 (nM)
Give bare numbers, in nM.

IC50 in this record for Nc1nc(Cl)nc2c1ncn2[C@@H]1O[C@H](CO)[C@@H](O)[C@@H]1F : 0.1
